Assignment: determine reported Cell viability in 3#-GSC (%) for the given molecules.
- Tested on: GSC-3 (3#-GSC)
- Run Description: MTS cell viability assay, glioblastoma stem cells GSC-3 (3#-GSC)
- Assay type: cell-based
- Study Conditions: 72 h
Numeric answer only, unit % assumed.

molecule CCCCCc1cc2c(c(-c3ccccc3)c1)C1C3C(CCC3(C)O2)C1(C)C (centres unmarked) [Compound 13b] , Cell viability in 3#-GSC (%) observed: 50

// Cell viability in 3#-GSC (%) value for Cc1cccc(-c2cc(O)c3c(c2)OC2(C)CCC4C2C3C4(C)C)c1 (centres unmarked) : 42

Sure, the documented Cell viability in 3#-GSC (%) for Cc1cc(C)cc(-c2cc(O)c3c(c2)OC2(C)CCC4C2C3C4(C)C)c1 (centres unmarked) is 64

For record Cc1ccccc1-c1cc(O)c2c(c1)OC1(C)CCC3C1C2C3(C)C (centres unmarked) the listed Cell viability in 3#-GSC (%) is 41
